Molecular target: Thermolysin (Bacillus thermoproteolyticus, UniProt P00800)
Sequence (P00800 whole entry): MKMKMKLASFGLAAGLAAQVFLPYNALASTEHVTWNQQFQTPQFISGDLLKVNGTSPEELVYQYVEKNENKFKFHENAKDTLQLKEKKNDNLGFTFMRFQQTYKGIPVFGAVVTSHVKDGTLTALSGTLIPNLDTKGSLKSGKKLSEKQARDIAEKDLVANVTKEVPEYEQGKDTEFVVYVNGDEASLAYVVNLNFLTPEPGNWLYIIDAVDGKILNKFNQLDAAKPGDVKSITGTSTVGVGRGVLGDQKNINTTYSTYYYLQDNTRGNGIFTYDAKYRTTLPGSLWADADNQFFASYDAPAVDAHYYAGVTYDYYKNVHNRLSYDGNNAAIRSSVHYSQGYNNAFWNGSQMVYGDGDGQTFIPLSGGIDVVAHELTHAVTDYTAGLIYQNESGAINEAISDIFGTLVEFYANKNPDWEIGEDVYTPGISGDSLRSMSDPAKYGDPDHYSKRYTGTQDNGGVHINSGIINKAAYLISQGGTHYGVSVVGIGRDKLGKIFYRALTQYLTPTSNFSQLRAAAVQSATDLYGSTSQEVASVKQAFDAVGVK
Assay: Inhibitory activity against thermolysin
molecules and their reported Ki
readout: Ki (µM)

[[record]]
mol = "CNC(=O)[C@@H](Cc1ccccc1)CN(O)C(C)=O"
unit_info = "µM"
assay_value = 3950

[[record]]
mol = "CNC(=O)[C@H](Cc1ccccc1)CN(O)C=O"
unit_info = "µM"
assay_value = 68.2

[[record]]
mol = "COC(=O)[C@@H](CC(C)C)CN(O)C=O"
unit_info = "µM"
assay_value = 22.5

[[record]]
mol = "CCC(=O)N(O)C[C@H](Cc1ccccc1)C(=O)NC"
unit_info = "µM"
assay_value = 7500

[[record]]
mol = "CNC(=O)[C@@H](Cc1ccccc1)CN(O)C=O"
unit_info = "µM"
assay_value = 1.66

[[record]]
mol = "COC(=O)[C@@H](CC(C)C)N(O)C=O"
unit_info = "µM"
assay_value = 44

